assay-metric: melting point

[Q] Value lookup for melting point; key = CN1CC[C@@H](c2c(O)cc(O)c3c(=O)cc(-c4cccnc4Cl)oc23)[C@@H]1CO [Example 90]
[A] 125 to 127 °C

[Q] Value lookup for melting point; key = COc1cc(OC)c2c(=O)cc(-c3ccccc3Cl)oc2c1[C@@H]1CCN(C)[C@H]1C(=O)O (racemic) [Example 143]
[A] 165 to 167 °C

[Q] Value lookup for melting point; key = CN1CC[C@@H](c2c(O)cc(O)c3c(=O)cc(-c4cc(F)ccc4Cl)oc23)[C@@H]1CO (racemic) [Example 23]
[A] 253 to 254 °C

[Q] Value lookup for melting point; key = CN1CC[C@@H](c2c(O)cc(O)c3c(=O)cc(-c4ccc(C(F)(F)F)cc4)oc23)[C@@H]1CO [Example 65]
[A] 235 to 237 °C

[Q] Value lookup for melting point; key = CN1CC[C@@H](c2c(O)cc(O)c3c(=O)cc(-c4ccccc4O)oc23)[C@@H]1CO (racemic) [Example 96]
[A] 212 to 213 °C

[Q] Value lookup for melting point; key = CN1CC[C@@H](c2c(O)cc(O)c3c(=O)cc(-c4ccccc4Cl)oc23)[C@@H]1CS (racemic) [Example 115]
[A] 205 to 206 °C

Next:
[Q] Value lookup for melting point; key = CN1CC[C@@H](c2c(O)cc(O)c3c(=O)cc(-c4ccccc4I)oc23)[C@@H]1CO [Example 19]
[A] 233 to 235 °C
